Source of measurements: ChEMBL document CHEMBL1135477

Assignment: determine reported Ratio for the given molecules.
System tested: Lanosterol 14-alpha demethylase (Candida albicans (strain SC5314 / ATCC MYA-2876) (Yeast), UniProt P10613)
Sequence (P10613 whole entry): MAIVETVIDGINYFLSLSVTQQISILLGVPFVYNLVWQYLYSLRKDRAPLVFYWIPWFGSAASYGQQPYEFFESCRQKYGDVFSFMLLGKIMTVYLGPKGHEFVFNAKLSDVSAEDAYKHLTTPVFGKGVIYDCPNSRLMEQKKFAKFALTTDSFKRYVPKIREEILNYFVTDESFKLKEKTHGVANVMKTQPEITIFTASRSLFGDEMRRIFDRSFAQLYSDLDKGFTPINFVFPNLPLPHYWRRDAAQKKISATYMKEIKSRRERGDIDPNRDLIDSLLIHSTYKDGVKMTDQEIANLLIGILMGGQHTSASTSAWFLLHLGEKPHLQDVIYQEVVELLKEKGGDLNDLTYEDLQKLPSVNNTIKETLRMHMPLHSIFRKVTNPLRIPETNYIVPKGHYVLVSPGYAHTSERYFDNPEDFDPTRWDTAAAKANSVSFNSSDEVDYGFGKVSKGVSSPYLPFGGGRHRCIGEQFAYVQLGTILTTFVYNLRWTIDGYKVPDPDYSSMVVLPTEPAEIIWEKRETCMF
Assay summary: Anticandida activity- (MIC90 compound) / (MIC90 bifonazole)
Format: functional
Just the number, please, no unit after it.

The reported value for COc1ccc([C@H](Cc2ccccc2F)n2ccnc2)cc1 in terms of Ratio is 63

Ratio recorded for this molecule, COc1ccc([C@H](Cc2ccc(N)cc2)n2ccnc2)cc1 , is 2.1

get_value(item= CC[C@@H](c1ccc(Cl)cc1)[C@@H](c1ccc(OC)cc1)n1cnnc1 , readout=Ratio) returns 63

Summary for this molecule, c1ccc([C@@H](c2ccc(-n3cccc3)cc2)n2ccnc2)cc1 : Ratio is 0.25

// field: Ratio; key: Cc1ccc([C@H](c2ccn(-c3ccc(F)cc3)c2)n2ccnc2)cc1 ; value = 1.9

// field: Ratio; key: Fc1ccc([C@@H](c2ccn(-c3ccc(F)cc3)c2)n2ccnc2)cc1 ; value = 1

Recorded Ratio (molecule COc1ccc([C@H](Cc2ccccc2Cl)n2cncn2)cc1 ): 32

Input COc1ccc(-c2cn(Cc3ccc(Cl)cc3Cl)cc2[C@@H](c2ccccc2)n2ccnc2)cc1 . Output Ratio: 41

The value of Ratio measured for the molecule c1ccc([C@H](c2ccn(-c3ccccc3)c2)n2ccnc2)cc1 turned out to be 4.1

Ratio reading for Clc1ccc(-c2c[nH]cc2[C@H](c2ccc(Cl)cc2Cl)n2ccnc2)cc1 : 0.8
